Data credit: ChEMBL document CHEMBL4765436

biological target: C-X-C chemokine receptor type 4 (Homo sapiens); test: Antagonist activity at CXCR4 (unknown origin) expressed in U2OS cells cotransfected with beta-arrestin/TEV protease fusion protein and beta-lactamase assessed as inhibition of SDF1-alpha-induced beta arrestin2 recruitment preincubated for 30 mins followed by SDF1-alpha stimulation and measured after 5 hrs by FRET based fluorescence/Tango assay
Sequence (P61073 whole entry, the tested form may be a part): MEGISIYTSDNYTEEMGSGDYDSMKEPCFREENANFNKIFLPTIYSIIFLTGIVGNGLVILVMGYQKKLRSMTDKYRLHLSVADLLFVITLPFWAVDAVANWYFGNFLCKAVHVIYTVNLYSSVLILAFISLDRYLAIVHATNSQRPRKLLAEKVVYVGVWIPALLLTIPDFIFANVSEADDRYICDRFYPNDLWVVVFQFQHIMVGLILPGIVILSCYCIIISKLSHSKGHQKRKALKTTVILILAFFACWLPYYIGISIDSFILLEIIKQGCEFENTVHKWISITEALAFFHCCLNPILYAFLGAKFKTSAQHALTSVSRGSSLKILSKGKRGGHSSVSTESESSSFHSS
pIC50: −log10 of the molar value.
# reported pIC50; entries follow
OBSERVABLE: pIC50

molecule=O=C(Nc1ccccc1)c1c(NC(=S)Nc2ccc(F)cc2)sc2c1CCOC2 observable=pIC50 measured="< 5.00"
molecule="CNC(=O)c1c(NC(=S)Nc2ccccc2)sc2c1C(C)CCC2 (centres undefined)" observable=pIC50 measured="< 5.00"
molecule="CC1COCc2sc(NC(=S)Nc3ccccc3)c(C(=O)OC(C)(C)C)c21 (centres undefined)" observable=pIC50 measured="< 4.82"
molecule="CC1CCCc2sc(NC(=S)Nc3ccc(OC(F)(F)F)cc3)c(C(=O)OC(C)(C)C)c21 (centres undefined)" observable=pIC50 measured="< 5.00"

====

Target: C-X-C chemokine receptor type 2 (Homo sapiens)
Sequence (P25025 whole entry): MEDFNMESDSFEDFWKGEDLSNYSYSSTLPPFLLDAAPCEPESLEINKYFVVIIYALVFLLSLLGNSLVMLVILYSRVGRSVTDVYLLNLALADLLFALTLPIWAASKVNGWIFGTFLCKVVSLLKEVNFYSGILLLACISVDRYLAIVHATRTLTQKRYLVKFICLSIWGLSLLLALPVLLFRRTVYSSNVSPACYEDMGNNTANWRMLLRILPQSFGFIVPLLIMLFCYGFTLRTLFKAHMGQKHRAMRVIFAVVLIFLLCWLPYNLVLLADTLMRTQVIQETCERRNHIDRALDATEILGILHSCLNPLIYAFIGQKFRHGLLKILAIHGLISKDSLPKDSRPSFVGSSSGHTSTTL
Assay: Antagonist activity at CXCR2 (unknown origin) expressed in U2OS cells cotransfected with beta-arrestin/TEV protease fusion protein and beta-lactamase assessed as inhibition of CXCL8-induced beta arrestin2 recruitment preincubated for 30 mins followed by CXCL8 stimulation and measured after 5 hrs by FRET based fluorescence/Tango assay
Format: cell-based
pIC50: −log10 of the molar value.
OBSERVABLE: pIC50

compound="CNC(=O)c1c(NC(=S)Nc2ccccc2)sc2c1C(C)CCC2 (stereo not drawn)" target_or_test_system="C-X-C chemokine receptor type 2 (Homo sapiens)" measured="< 5.00"
compound=O=C(Nc1ccccc1)c1c(NC(=S)Nc2ccc(F)cc2)sc2c1CCOC2 target_or_test_system="C-X-C chemokine receptor type 2 (Homo sapiens)" measured="< 5.00"
compound="CCOC(=O)c1c(NC(=S)Nc2ccc(N)cc2)sc2c1C(C)CCC2 (stereo not drawn)" target_or_test_system="C-X-C chemokine receptor type 2 (Homo sapiens)" measured="< 4.52"
